Where do these numbers come from? They come from PubChem BioAssay AID256.

system: CD2F1 mice, L1210 leukemia ip, survival T/C; test: NCI In Vivo Anticancer Drug Screen. Data for tumor model L1210 Leukemia (intraperitoneal) in CD2F1 (CDF1) mice; settings: endpoint: mean survival time; dose: 50.0 mg/kg/injection; schedule: Q01DX009 (ip); vehicle: saline with Tween-80
Inconclusive results and toxic doses are left out. How the source made its calls: active means survival T/C of 150% or more; inactive means T/C below 125% in these data.
Form entry, call: pick from active, inactive

[Q] Which outcome was entered for the molecule Clc1ccc(CCc2ccc(Cl)cc2)cc1 in this test?
[A] inactive

[Q] Can you check CCCCCCCCN(C)C next?
[A] inactive

[Q] Can you check O=C1NC(=O)C2C3C=CC(C12)C1C2C(=O)NC(=O)C2C31 (configuration not stated) next?
[A] active

[Q] Can you check CC(=O)N/N=C\C1=CCC=C(Br)S1 next?
[A] inactive

[Q] Can you check CCCCCCCCCCCCCCCC(O)S(=O)(=O)O (configuration not stated) next?
[A] inactive

[Q] Can you check N.O=S(=O)(O)O.[Al] next?
[A] inactive

[Q] Can you check CN(C)c1ccc(/C=[N+](\[O-])c2ccccc2)cc1 next?
[A] inactive

[Q] Can you check CC(C)Cc1ccc(OC(=O)Nc2ccc(Cl)cc2)cc1 next?
[A] inactive

[Q] Can you check CCOC(CC)c1ccccc1 (configuration not stated) next?
[A] inactive

[Q] Can you check CP1(=S)CCC(O)(c2ccccc2)CC1 (configuration not stated) next?
[A] inactive

[Q] Can you check O=C(NNc1ccccc1)C(F)(F)F next?
[A] inactive

[Q] Can you check CC(Cc1ccccc1)NC(C#N)c1ccccc1 (configuration not stated) next?
[A] inactive

###

system: CD2F1 mice, L1210 leukemia ip, survival T/C; test: NCI In Vivo Anticancer Drug Screen. Data for tumor model L1210 Leukemia (intraperitoneal) in CD2F1 (CDF1) mice; details: endpoint: mean survival time; dose: 12.5 mg/kg/injection; schedule: Q04DX003 (ip); vehicle: distilled water + Tween-80; higher = longer survival
Toxic doses and inconclusive results are not listed.
measured metric: T/C

[Q] # T/C lookup, item O=P(O)(O)OP(=O)(O)O.[NH-]CC[NH-].[NH-]CC[NH-].[Pd+2].[Pd+2]
[A] 87 % of control

[Q] Can you check [Cl][Pt+2][Cl].[NH-]Cc1cccc(F)c1.[NH-]Cc1cccc(F)c1 next?
[A] 95 % of control

[Q] Can you check O=c1cc[nH]c(=S)[nH]1.[Pd] next?
[A] 96 % of control

[Q] Can you check [Cl][Pt+2][Cl].[NH-]c1nc(-c2ccccc2)cs1.[NH-]c1nc(-c2ccccc2)cs1 next?
[A] 96 % of control

###

test system: CD2F1 mice, L1210 leukemia ip, survival T/C; assay: NCI In Vivo Anticancer Drug Screen. Data for tumor model L1210 Leukemia (intraperitoneal) in CD2F1 (CDF1) mice; conditions: endpoint: mean survival time; dose: 200.0 mg/kg/injection; schedule: Q04DX003 (ip); vehicle: saline; higher = longer survival
Inconclusive results and toxic doses are left out.
measured metric: T/C

[Q] Which measured T/C belongs to CS(=O)(=O)c1cnc2ccccc2n1 , tested on CD2F1 mice, L1210 leukemia ip, survival T/C?
[A] 86 % of control

[Q] Can you check CCOC(=O)C1(C(=O)OCC)CC2(COC(c3ccccc3)OC2)C1 next?
[A] 97 % of control

[Q] Can you check O=C(O)C(CCc1ccccc1)N1CCOCC1 (configuration not stated) next?
[A] 98 % of control

[Q] Can you check C[Si](OCc1ccc(-c2ccccc2)cc1)c1ccccc1 next?
[A] 93 % of control

[Q] Can you check c1ccc2[nH]c(CCCCc3nc4ccccc4[nH]3)nc2c1 next?
[A] 100 % of control

[Q] Can you check NCCC(=O)CN next?
[A] 107 % of control

[Q] Can you check CCCOC(=O)C1CCCCC1C(=O)OCCC (configuration not stated) next?
[A] 98 % of control

###

Task for the reader: assign each of the following molecules its reported T/C.
test system: CD2F1 mice, L1210 leukemia ip, survival T/C; test: NCI In Vivo Anticancer Drug Screen. Data for tumor model L1210 Leukemia (intraperitoneal) in CD2F1 (CDF1) mice; settings: endpoint: mean survival time; dose: 150.0 mg/kg/injection; schedule: Q01DX001 (ip); vehicle: other; higher = longer survival
Inconclusive results and toxic doses are left out.

[Q] Which measured T/C belongs to O=C(OC1CCC(c2ccccc2)C1)c1cc([N+](=O)[O-])cc([N+](=O)[O-])c1 (stereo not given) , tested on CD2F1 mice, L1210 leukemia ip, survival T/C?
[A] 92 % of control

[Q] Can you check Cc1ccc(S(=O)(=O)OC2CCCCC2c2ccc(C(F)(F)F)cc2)cc1 (stereo not given) next?
[A] 88 % of control

[Q] Can you check CCCCC1=C(P(=O)(OCC)OCC)C(F)(F)C(F)(F)C1(F)F next?
[A] 86 % of control

[Q] Can you check CN(C)c1nc(F)nc2c1ncn2C1OC(CO)C(O)C1O (stereo not given) next?
[A] 109 % of control

[Q] Can you check COC(=O)c1cc2ccccc2[nH]c1=O next?
[A] 96 % of control

###

system: CD2F1 mice, L1210 leukemia ip, survival T/C; experiment: NCI In Vivo Anticancer Drug Screen. Data for tumor model L1210 Leukemia (intraperitoneal) in CD2F1 (CDF1) mice; settings: endpoint: mean survival time; dose: 200.0 mg/kg/injection; schedule: Q04DX003 (ip); vehicle: saline; higher = longer survival
Toxic doses and inconclusive results are not listed.
measured metric: T/C

[Q] Which measured T/C belongs to O=S1(=O)CC2(N3CCOCC3)CCCCC21 (configuration not stated) , tested on CD2F1 mice, L1210 leukemia ip, survival T/C?
[A] 102 % of control

[Q] Can you check O=C1C(CO)=C[C@@H](O)[C@H]2O[C@@H]12 next?
[A] 102 % of control

[Q] Can you check CC1(C)COC(Cc2ccccc2Br)=N1 next?
[A] 93 % of control

[Q] Can you check CCC(CC)C(=O)OCCCCOC(=O)C(CC)CC next?
[A] 107 % of control

[Q] Can you check O=C(OCCOCCOC(=O)N1CCOCC1)N1CCOCC1 next?
[A] 102 % of control

[Q] Can you check COC(=O)CC(=O)C1(C)CC1 next?
[A] 93 % of control

[Q] Can you check COc1cc(-c2ccc(N=Nc3c(O)ccc4ccccc34)c(OC)c2)ccc1N=Nc1ccc2c(S(=O)(=O)O)cc(S(=O)(=O)O)c(N)c2c1O next?
[A] 95 % of control

[Q] Can you check OCCN1CCN(CCCN2c3ccccc3Sc3ccc(Cl)cc32)CC1 next?
[A] 116 % of control

[Q] Can you check CC(O)CN1CC(C)OC(C)C1 (configuration not stated) next?
[A] 103 % of control

[Q] Can you check O=C(NO)c1ccncc1 next?
[A] 94 % of control

[Q] Can you check COP(=O)(O)c1ccccc1 (tested in a mixture with another compound) next?
[A] 106 % of control

[Q] Can you check COc1cc(CO)ccc1Oc1ccc(C)cc1 next?
[A] 100 % of control

###

test system: CD2F1 mice, L1210 leukemia ip, survival T/C; test: NCI In Vivo Anticancer Drug Screen. Data for tumor model L1210 Leukemia (intraperitoneal) in CD2F1 (CDF1) mice; conditions: endpoint: mean survival time; dose: 200.0 mg/kg/injection; schedule: Q04DX003 (ip); vehicle: saline with Tween-80; higher = longer survival
Toxic doses and inconclusive results are not listed.
Task for the reader: assign each of the following molecules its reported T/C.

[Q] # T/C lookup, item Cc1c(O)c(=O)n(-c2ccccc2)n1C
[A] 93 % of control

[Q] Can you check O=C(CCCl)Oc1ccc(Br)cc1 next?
[A] 100 % of control

[Q] Can you check CC(=O)NC(=O)NC(Cc1ccccc1)c1ccccc1 (centres undefined) next?
[A] 96 % of control

[Q] Can you check Cc1nc(C(=O)O)c(C(=O)O)[nH]1 next?
[A] 94 % of control

[Q] Can you check O=C(SSC(=O)c1ccccc1)c1ccccc1 next?
[A] 102 % of control

[Q] Can you check COc1ccc(-c2nc3cc(Cl)ccc3c(=O)o2)cc1 next?
[A] 91 % of control

[Q] Can you check OCCNC(=S)SCc1ccccc1 next?
[A] 100 % of control

[Q] Can you check Cc1cc(C)c(C)cc1C next?
[A] 100 % of control

[Q] Can you check Nc1nnnn1C1CCCCC1 next?
[A] 106 % of control

[Q] Can you check S=c1[nH]nc2n1NC(c1ccccc1)=NN2 next?
[A] 96 % of control

[Q] Can you check c1ccc(COCCOCc2ccccc2)cc1 next?
[A] 97 % of control

[Q] Can you check CC(C)(C=O)CNC(C)(C)C next?
[A] 96 % of control

[Q] Can you check CC(=O)OC1C=CS(=O)(=O)C1 (centres undefined) next?
[A] 103 % of control

[Q] Can you check Cc1ccc(C(=O)c2nnc(C(=O)c3ccc(C)cc3)nn2)cc1 next?
[A] 92 % of control
